Please go through the items and note down their BUN.
Experiment: Drug toxicity test: blood biochemistry in nude mice
Format: in vivo
Set-up: unit not given here
Settings: serum of nude mice
Just the number, please, no unit attached.

**Query** So what does the record say about BUN for O=C(CCCCCCC(=O)Nc1ccccc1)NO [SAHA, suberoylanilide hydroxamic acid] ?
**Result** 7.9

**Query** So what does the record say about BUN for O=C(CCCCCC[Se][Se]CCCCCCC(=O)Nc1cccc(CO)c1)Nc1cccc(CO)c1 [SeSAHA] ?
**Result** 6.7

**Query** So what does the record say about BUN for O=C(O)C(Cl)Cl [DCA, Dichloroacetate] ?
**Result** 10.5

**Query** So what does the record say about BUN for CC(=O)O[C@@]12CO[C@@H]1C[C@H](O)[C@@]1(C)C(=O)[C@H](O)C3=C(C)[C@@H](OC(=O)[C@H](O)[C@@H](NC(=O)OC(C)(C)C)c4ccccc4)C[C@@](O)([C@@H](OC(=O)c4ccccc4)[C@H]21)C3(C)C [Docetaxel, docetaxel] ?
**Result** 9.8

* * *

Assay: Drug toxicity test: blood biochemistry in nude mice
Type: in vivo
Conditions: serum of nude mice; dose (DCA 100, SAHA 20, SeSAHA 20, Docetaxel 10, SeSA-DCA 20 mg/kg); in U/L (unit assumed)
Method: Blood samples from each mouse were kept at room temperature for 3 h and centrifuged at 8000 rpm for 15 min to produce serum. The samples were then placed on the blood routine detector for biochemical analysis.
Please go through the items and note down their ALT.
Just the number, please, no unit attached.

**Query** So what does the record say about ALT for O=C(O)C(Cl)Cl [DCA, Dichloroacetate] ?
**Result** 37.5

**Query** So what does the record say about ALT for CC(=O)O[C@@]12CO[C@@H]1C[C@H](O)[C@@]1(C)C(=O)[C@H](O)C3=C(C)[C@@H](OC(=O)[C@H](O)[C@@H](NC(=O)OC(C)(C)C)c4ccccc4)C[C@@](O)([C@@H](OC(=O)c4ccccc4)[C@H]21)C3(C)C ?
**Result** 46.4

**Query** So what does the record say about ALT for O=C(CCCCCC[Se][Se]CCCCCCC(=O)Nc1cccc(CO)c1)Nc1cccc(CO)c1 ?
**Result** 49.3

**Query** So what does the record say about ALT for O=C(CCCCCCC(=O)Nc1ccccc1)NO [SAHA, suberoylanilide hydroxamic acid] ?
**Result** 53.5

* * *

Tested on: HT-29
Test: CCK-8 cell viability assay, HT-29
Type: cell-based
Details: Homo sapiens, Figure 2A
metric_name: IC50 (µM)
Number in µM, nothing else.

**Query** So what does the record say about IC50 for O=C(CCCCCC[Se][Se]CCCCCCC(=O)Nc1cccc(COC(=O)C(Cl)Cl)c1)Nc1cccc(COC(=O)C(Cl)Cl)c1 ?
**Result** 8.71

* * *

Please go through the items and note down their ALP.
Assay: Drug toxicity test: blood biochemistry in nude mice
Assay type: in vivo
Conditions: serum of nude mice; in U/L (unit assumed)
Just the number, please, no unit attached.

**Query** So what does the record say about ALP for O=C(O)C(Cl)Cl [DCA, Dichloroacetate] ?
**Result** 36.2

**Query** So what does the record say about ALP for CC(=O)O[C@@]12CO[C@@H]1C[C@H](O)[C@@]1(C)C(=O)[C@H](O)C3=C(C)[C@@H](OC(=O)[C@H](O)[C@@H](NC(=O)OC(C)(C)C)c4ccccc4)C[C@@](O)([C@@H](OC(=O)c4ccccc4)[C@H]21)C3(C)C ?
**Result** 34.2

**Query** So what does the record say about ALP for O=C(CCCCCC[Se][Se]CCCCCCC(=O)Nc1cccc(CO)c1)Nc1cccc(CO)c1 ?
**Result** 36.5

**Query** So what does the record say about ALP for O=C(CCCCCCC(=O)Nc1ccccc1)NO [SAHA, suberoylanilide hydroxamic acid] ?
**Result** 34.3

* * *

Please go through the items and note down their AST.
Assay: Drug toxicity test: blood biochemistry in nude mice
Type: in vivo
Details: serum of nude mice; in U/L (unit assumed)
Just the number, please, no unit attached.

**Query** So what does the record say about AST for O=C(CCCCCCC(=O)Nc1ccccc1)NO [SAHA, suberoylanilide hydroxamic acid] ?
**Result** 285.3

**Query** So what does the record say about AST for CC(=O)O[C@@]12CO[C@@H]1C[C@H](O)[C@@]1(C)C(=O)[C@H](O)C3=C(C)[C@@H](OC(=O)[C@H](O)[C@@H](NC(=O)OC(C)(C)C)c4ccccc4)C[C@@](O)([C@@H](OC(=O)c4ccccc4)[C@H]21)C3(C)C ?
**Result** 251.8

**Query** So what does the record say about AST for O=C(O)C(Cl)Cl [DCA, Dichloroacetate] ?
**Result** 223.4

**Query** So what does the record say about AST for O=C(CCCCCC[Se][Se]CCCCCCC(=O)Nc1cccc(CO)c1)Nc1cccc(CO)c1 ?
**Result** 235.5

* * *

Please go through the items and note down their TBIL.
Assay: Drug toxicity test: blood biochemistry in nude mice
Type: in vivo
Design: unit not given here
Settings: serum of nude mice
Just the number, please, no unit attached.

**Query** So what does the record say about TBIL for O=C(CCCCCC[Se][Se]CCCCCCC(=O)Nc1cccc(CO)c1)Nc1cccc(CO)c1 ?
**Result** 0.6

**Query** So what does the record say about TBIL for CC(=O)O[C@@]12CO[C@@H]1C[C@H](O)[C@@]1(C)C(=O)[C@H](O)C3=C(C)[C@@H](OC(=O)[C@H](O)[C@@H](NC(=O)OC(C)(C)C)c4ccccc4)C[C@@](O)([C@@H](OC(=O)c4ccccc4)[C@H]21)C3(C)C ?
**Result** 0.7

**Query** So what does the record say about TBIL for O=C(O)C(Cl)Cl [DCA, Dichloroacetate] ?
**Result** 0.49

**Query** So what does the record say about TBIL for O=C(CCCCCCC(=O)Nc1ccccc1)NO [SAHA, suberoylanilide hydroxamic acid] ?
**Result** 0.8

* * *

Please go through the items and note down their GLOB.
Assay: Drug toxicity test: blood biochemistry in nude mice
Assay type: in vivo
Settings: serum of nude mice; in g/L (unit assumed)

**Query** So what does the record say about GLOB for O=C(CCCCCCC(=O)Nc1ccccc1)NO [SAHA, suberoylanilide hydroxamic acid] ?
**Result** 35.9 ± 3.6

**Query** So what does the record say about GLOB for O=C(CCCCCC[Se][Se]CCCCCCC(=O)Nc1cccc(CO)c1)Nc1cccc(CO)c1 ?
**Result** 38.4 ± 1.1

**Query** So what does the record say about GLOB for O=C(O)C(Cl)Cl [DCA, Dichloroacetate] ?
**Result** 37.1 ± 0.22

**Query** So what does the record say about GLOB for CC(=O)O[C@@]12CO[C@@H]1C[C@H](O)[C@@]1(C)C(=O)[C@H](O)C3=C(C)[C@@H](OC(=O)[C@H](O)[C@@H](NC(=O)OC(C)(C)C)c4ccccc4)C[C@@](O)([C@@H](OC(=O)c4ccccc4)[C@H]21)C3(C)C ?
**Result** 38.3 ± 3.1

* * *

Test: Drug toxicity test: blood biochemistry in nude mice
Type: in vivo
Details: serum of nude mice; in g/L (unit assumed)
metric_name: TP
Just the number, please, no unit attached.

**Query** So what does the record say about TP for O=C(CCCCCC[Se][Se]CCCCCCC(=O)Nc1cccc(CO)c1)Nc1cccc(CO)c1 ?
**Result** 53.7

**Query** So what does the record say about TP for CC(=O)O[C@@]12CO[C@@H]1C[C@H](O)[C@@]1(C)C(=O)[C@H](O)C3=C(C)[C@@H](OC(=O)[C@H](O)[C@@H](NC(=O)OC(C)(C)C)c4ccccc4)C[C@@](O)([C@@H](OC(=O)c4ccccc4)[C@H]21)C3(C)C ?
**Result** 52.8

**Query** So what does the record say about TP for O=C(O)C(Cl)Cl [DCA, Dichloroacetate] ?
**Result** 51.5

**Query** So what does the record say about TP for O=C(CCCCCCC(=O)Nc1ccccc1)NO [SAHA, suberoylanilide hydroxamic acid] ?
**Result** 51.7

* * *

Test: Drug toxicity test: blood biochemistry in nude mice
Format: in vivo
Conditions: serum of nude mice; in g/L (unit assumed)
Please go through the items and note down their ALB.
Just the number, please, no unit attached.

**Query** So what does the record say about ALB for O=C(CCCCCC[Se][Se]CCCCCCC(=O)Nc1cccc(CO)c1)Nc1cccc(CO)c1 ?
**Result** 15.4

**Query** So what does the record say about ALB for O=C(O)C(Cl)Cl [DCA, Dichloroacetate] ?
**Result** 13.45

**Query** So what does the record say about ALB for CC(=O)O[C@@]12CO[C@@H]1C[C@H](O)[C@@]1(C)C(=O)[C@H](O)C3=C(C)[C@@H](OC(=O)[C@H](O)[C@@H](NC(=O)OC(C)(C)C)c4ccccc4)C[C@@](O)([C@@H](OC(=O)c4ccccc4)[C@H]21)C3(C)C ?
**Result** 14.6

**Query** So what does the record say about ALB for O=C(CCCCCCC(=O)Nc1ccccc1)NO [SAHA, suberoylanilide hydroxamic acid] ?
**Result** 15.8
